Data origin: the supplement of paper PMC7125110

For each of the variants below, state its KM.
B1: glmS ribozyme (parent)
chain: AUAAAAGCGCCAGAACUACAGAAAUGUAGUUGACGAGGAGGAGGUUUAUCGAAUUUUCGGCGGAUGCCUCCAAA

- Variants of: B1
- assay protocol: KM; higher = weaker cofactor use; RNA array
- condition details: with glucosamine-6-phosphate
One number for each entry, in µM.

In [3]: df
Out[3]:
   variant_designation  observable  unit_annotation  result_number
0            U31G G44U          KM               µM           8740
1            A39G G40U          KM               µM           1420
2            U31C U47C          KM               µM           2160

Below are some variants; for each one, tell me its KM.
1. A12G U30G
2. U54G G66A
3. C8U C50G
4. G41U U45G
5. A6U U54C
6. U45G A64G
7. A12G A14C

Response given:
1830
1380
31
909
2260
2790
2970

Batch request: KM for each of the following variants.
1. G37A U65G
2. A15U U46C
3. A14U C67A
4. A14G A23C A64U
5. G44A U56A

Response given:
[3870, 1290, 1240, 1610, 2650]
